- Test system: HCT-8
- Test: Antiproliferative activity against human HCT8 cells after 3 days by sulforhodamine B assay
- Assay type: functional
- Assay context: HCT-8, 72 h
Reported property: GI50
Form entry: enter the amount, then its unit.

Ask | Please look up its GI50: CCC1=C(O)c2c(oc(-c3cccc4ccccc34)cc2=S)C(CC)(CC)C1=S
Reply | 13300 nM

Ask | Which measured GI50 value corresponds to CC1=C(O)c2c(oc(-c3ccc4c(c3)OCCO4)cc2=O)C(C)(C)C1=O ?
Reply | 1300 nM

Ask | State the recorded GI50 for this entry: CC[C@]1(O)C[C@H]2CN(CCc3c([nH]c4ccccc34)[C@@](C(=O)OC)(c3cc4c(cc3OC)N(C=O)[C@H]3[C@@](O)(C(=O)OC)[C@H](OC(C)=O)[C@]5(CC)C=CCN6CC[C@]43[C@@H]65)C2)C1
Reply | 36 nM

Ask | Any idea what GI50 was measured for CC1=C(O)c2c(oc(-c3ccc(C)c4ccccc34)cc2=O)C(C)(C)C1=O ?
Reply | 2560 nM

src = ChEMBL document CHEMBL1687889
